Listed compounds paired with reported TGI
Test system: SN12C renal
protocol: NCI tumour cell line growth inhibition, 48 h

The examples below pair each entry with its known result.
Cc1ccc(C)n1-c1ccccc1C1C=Cn2c(=O)oc3c(OC(C)C)c(OC(C)C)c(O)c1c32 (stereo unspecified): > 100 µM
[N-]=[N+]=C(C(=O)CN1CCCC1=O)S(=O)(=O)c1ccccc1: > 100 µM
COC(=O)N[C@@H]1C[C@H]2CC[C@]1(O[Si](C(C)C)(C(C)C)C(C)C)C(=O)C2: > 100 µM
CC1(C)CC(=O)C(CC2C(=O)CCCC2=O)C(=O)C1: > 100 µM
OC(CCN1CCN(CCOC(c2ccccc2)c2ccccc2)CC1)c1ccccc1 (stereo unspecified): 82.3 µM
Cc1nnc(N/N=C/c2ccc([N+](=O)[O-])o2)[nH]c1=O: 22.5 µM
NS(=O)(=O)c1ccc(-c2ccc([As](=O)(O)O)cc2)cc1: > 100 µM
Cc1cn(C2CC(O)C(Cn3nncc3Cn3nc(Br)c(=O)[nH]c3=O)O2)c(=O)[nH]c1=O (stereo unspecified): > 100 µM

-- ask Look up and report measured TGI for this entry: O=c1c(O)c(-c2ccccc2)oc2c(CP(=O)(O)O)cccc12
-- reply > 100 µM

-- ask For the compound Cc1ccsc1C(NC(=O)c1ccccc1)c1cc(Cl)c2cccnc2c1O (stereo unspecified) , report TGI.
-- reply 14.7 µM

Cited source for all entries: PubChem BioAssay (NCI)
